tested on: Vero cells; experiment: Cell viability; type: cell-based, monkey; settings: Primates, 72 h, read-out: Anti-proliferative activity IC50, Vero
Recorded Endpoint: IC50 (µM)
Supply the numeric figure in µM, leaving out any unit text.

Prompt: IC50 lookup needed for O=C(CCCCCCC(=O)Nc1ccccc1)NO [SAHA, suberoylanilide hydroxamic acid, reference compound] , thanks.
Completion: 1.03
